Target: T1, human DLL3 antigen (human, UniProt Q9NYJ7 27-492)
T1 chain: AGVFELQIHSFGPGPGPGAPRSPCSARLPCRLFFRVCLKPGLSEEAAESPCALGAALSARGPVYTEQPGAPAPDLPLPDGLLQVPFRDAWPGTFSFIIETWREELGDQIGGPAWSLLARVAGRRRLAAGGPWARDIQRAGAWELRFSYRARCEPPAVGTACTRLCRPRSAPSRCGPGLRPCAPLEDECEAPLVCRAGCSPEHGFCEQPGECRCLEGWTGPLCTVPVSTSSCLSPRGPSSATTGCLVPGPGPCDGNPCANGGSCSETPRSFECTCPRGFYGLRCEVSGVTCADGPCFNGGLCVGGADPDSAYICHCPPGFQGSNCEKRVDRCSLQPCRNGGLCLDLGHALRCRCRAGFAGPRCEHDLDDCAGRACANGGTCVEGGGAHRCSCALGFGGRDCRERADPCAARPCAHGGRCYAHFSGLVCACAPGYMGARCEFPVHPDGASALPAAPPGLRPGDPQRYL
Test: Biacore SPR
Measured pKd, listed per entry for reference.
In textbook form, pKd equals minus log to base ten of the concentration in mol/L.

// known answers, use as guide
{"BINDER": "SC16.15 (antibody, V domains shown) VH: QVQLQQSGAELAKPGASVKMSCKASGYTFTRYWIHWIKQRPGQGLEWIGYINPTTVYTEFNQNFKDKATLTADKSSTTASMQLSSLTSEDSAVYYCARGGSNFFDYWGQGTTLTVSS VL: DIQMTQSPASLAASVGETVAITCRASENIYYNLAWYQQKQGKSPQLLIYTANSLEDGVPSRFSGSGSGTQYSLKINSMQPEDSATYFCKQAYDVPPTFGGGTKLEIK", "pKd": 9.30}
{"BINDER": "SC16.13 (antibody, V domains shown) VH: QVTLKESGPGILQPSQTLSLTCSFSGFSLSTSGMGVGWIRQPSGKGLEWLAHIWWDDVKRYNPALKSRLTISKDTSSSQVFLKIASVDTADTATYYCARIVSFDNDVVSAMDYWGQGTSVTVSS VL: QIVLTQSPALVSASPGEKVTMTCSASSSVSYMYWYQQKPRSSPKPWIYLTSNLASGVPARFSGSGSGTSYSLTISSMEAEDAATYYCQQWRSNPFTFGSGTKLEIK", "pKd": 8.70}

Retrieve pKd measured for SC16.56 (antibody, V domains shown) VH: QIQLVQSGPELKKPGETVKISCKASGYTFTNYGMNWVKQAPGKGLKWMAWINTYTGEPTYADDFKGRFAFSLETSASTASLQIINLKNEDTATYFCARIGDSSPSDYWGQGTTLTVSS VL: SIVMTQTPKFLLVSAGDRVTITCKASQSVSNDVVWYQQKPGQSPKLLIYYASNRYTGVPDRFAGSGYGTDFSFTISTVQAEDLAVYFCQQDYTSPWTFGGGTKLEIR and print it.
9.00

Values were extracted from patent US20140370037A1.
